# MTD values compiled below
Assay: Test Example 4: nephrotoxicity, kidney marker gene expression by quantitative RT-PCR after intravenous administration
Type: in vivo
Conditions: mouse, kidney, mice, nephrotoxicity positive when ΔΔCt of two-third of target genes (Kim1, Timp1, Lcn2) >3
API: value field is a number in mg/kg; no unit string.

Consider the following illustrative entries.
# Molecule, Units, MTD
data = [
    ("C[C@@H]1[C@H](O)[C@@H](C)/C=C/C=C/C=C/C=C/C=C/C=C/C=C/[C@H](O[C@@H]2O[C@H](C)[C@@H](O)[C@H](N)[C@@H]2O)C[C@@H]2O[C@](O)(C[C@@H](O)C[C@@H](O)[C@H](O)CC[C@@H](O)C[C@@H](O)CC(=O)O[C@H]1C)C[C@H](O)[C@H]2C(=O)O [AmB, Amphotericin B, reference compound]", "mg/kg", 1),
    ("C[C@@H]1[C@H](O)[C@@H](C)/C=C/C=C/C=C/C=C/C=C/C=C/C=C/[C@H](O[C@@H]2O[C@H](C)[C@@H](O)[C@H](N)[C@@H]2O)C[C@@H]2O[C@](O)(C[C@@H](O)C[C@@H](O)[C@H](O)CC[C@@H](O)C[C@@H](O)CC(=O)O[C@H]1C)C[C@H](O)[C@H]2NC(=O)NCCC(=O)O [AmBCU, reference compound]", "mg/kg", 3),
]

Briefly, MTD measured for CNC(=O)N[C@H]1[C@@H]2C[C@@H](O[C@@H]3O[C@H](C)[C@@H](O)[C@H](N)[C@@H]3O)/C=C/C=C/C=C/C=C/C=C/C=C/C=C/[C@H](C)[C@@H](O)[C@@H](C)[C@H](C)OC(=O)C[C@H](O)C[C@H](O)CC[C@@H](O)[C@H](O)C[C@H](O)C[C@](O)(C[C@@H]1O)O2 [AmBMU, reference compound] : 12
